- TARGET OR TEST SYSTEM: LPA3 receptor (Homo sapiens, UniProt Q9UBY5)
- Sequence (Q9UBY5 whole entry): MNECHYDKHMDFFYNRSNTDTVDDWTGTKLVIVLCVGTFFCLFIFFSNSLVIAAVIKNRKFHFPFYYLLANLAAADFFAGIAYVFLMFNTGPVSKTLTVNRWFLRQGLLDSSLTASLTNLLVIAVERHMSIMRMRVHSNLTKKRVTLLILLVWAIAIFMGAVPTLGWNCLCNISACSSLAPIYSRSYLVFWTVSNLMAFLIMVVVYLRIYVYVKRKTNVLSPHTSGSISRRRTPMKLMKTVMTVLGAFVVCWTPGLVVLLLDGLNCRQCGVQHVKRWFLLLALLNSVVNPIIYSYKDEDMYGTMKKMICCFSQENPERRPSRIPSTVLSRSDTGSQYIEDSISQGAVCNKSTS
- RUN DESCRIPTION: Heterologous (PMA) / homologous (LPA) desensitization of LPA-induced calcium response, LPA3 cells
- Assay type: cell-based
- CONDITION SUMMARY: read-out: IC50, inhibition of LPA-induced calcium response (heterologous desensitization)
TEST READOUT: IC50

[
  {
    "MOLECULE": "CCCCCCCCCCCCCC(=O)O[C@@H]1[C@@H](C)[C@@]2(O)[C@@H](C=C(CO)C[C@]3(O)C(=O)C(C)=C[C@@H]23)[C@@H]2C(C)(C)[C@]12OC(C)=O [PMA, phorbol myristate acetate]",
    "TARGET OR TEST SYSTEM": "LPA3 receptor (Homo sapiens, UniProt Q9UBY5)",
    "RESULT": "3 to 10 nM"
  }
]

====

- TARGET OR TEST SYSTEM: LPA1 receptor (Mus musculus)
- RUN DESCRIPTION: Heterologous (PMA) / homologous (LPA) desensitization of LPA-induced calcium response, LPA1 cells
- CONDITION SUMMARY: read-out: IC50, inhibition of LPA-induced calcium response (heterologous desensitization)
- Experimental: This procedure has been described previously. Briefly, cells were loaded with 2.5 μM Fura-2 AM in Krebs–Ringer–Hepes containing 0.05% bovine serum albumin (pH 7.4) for 1 h at 37°C and then washed to eliminate unincorporated indicator. Determinations were carried in an AMINCO-Bowman Series 2 luminescence spectrometer, employing 340 and 380 nm excitation wavelengths and an emission wavelength of 510 nm; chopper interval was 0.5 sec. […]

[
  {
    "MOLECULE": "CCCCCCCCCCCCCC(=O)O[C@@H]1[C@@H](C)[C@@]2(O)[C@@H](C=C(CO)C[C@]3(O)C(=O)C(C)=C[C@@H]23)[C@@H]2C(C)(C)[C@]12OC(C)=O [PMA, phorbol myristate acetate]",
    "IC50": "1 to 3 nM"
  }
]

====

- TARGET OR TEST SYSTEM: LPA3 receptor (Homo sapiens)
- RUN DESCRIPTION: LPA3 receptor phosphorylation ([32P]Pi labeling, immunoprecipitation)

[
  {
    "COMPOUND": "CCCCCCCCCCCCCC(=O)O[C@@H]1[C@@H](C)[C@@]2(O)[C@@H](C=C(CO)C[C@]3(O)C(=O)C(C)=C[C@@H]23)[C@@H]2C(C)(C)[C@]12OC(C)=O [PMA, phorbol myristate acetate]",
    "EC50": "3 to 10 nM"
  }
]

====

- TARGET OR TEST SYSTEM: LPA1 receptor (Mus musculus, UniProt P61793)
- Construct: expressed in transfected cells
- Sequence (P61793 whole entry): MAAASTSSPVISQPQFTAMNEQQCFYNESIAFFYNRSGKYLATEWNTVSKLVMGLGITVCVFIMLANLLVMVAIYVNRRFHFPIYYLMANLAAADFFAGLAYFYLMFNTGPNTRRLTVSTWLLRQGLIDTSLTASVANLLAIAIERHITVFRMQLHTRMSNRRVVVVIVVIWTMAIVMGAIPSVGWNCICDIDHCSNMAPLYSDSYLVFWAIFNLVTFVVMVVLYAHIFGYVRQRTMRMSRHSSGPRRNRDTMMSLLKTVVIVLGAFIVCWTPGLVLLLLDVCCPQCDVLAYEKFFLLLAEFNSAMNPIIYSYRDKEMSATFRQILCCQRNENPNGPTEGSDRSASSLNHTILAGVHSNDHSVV
- RUN DESCRIPTION: LPA1 receptor phosphorylation ([32P]Pi labeling, immunoprecipitation)
- Format: cell-based
- CONDITION SUMMARY: 15 min incubation, LPA1-overexpressing cells; read-out: EC50, receptor phosphorylation
- Procedure: The procedure was very similar to that previously described to study LPA1 receptor phosphorylation. In brief, cells were incubated in phosphate-free Dulbecco’s modified Eagle’s medium containing 100 μCi/ml [^32P]Pi for 3 h at 37°C. […] Receptor phosphorylation was analyzed with a Molecular Dynamics Typhoon PhosphorImager and the ImageJ software (http://rsb.info.nih.gov/ij/).
pEC50: −log10 of the molar value.

[
  {
    "SAMPLE SMILES": "CCCCCCCC/C=C\\CCCCCCCC(=O)OC[C@@H](O)COP(=O)(O)O",
    "pEC50": "7.52 to 8.00"
  }
]
